meta.source: patent US11760722B2

System: human coronavirus (HCoV) 229E
procedure.text: microbe, parasite or virus in culture
Assay type: cell-based, human coronavirus 229E
conditions: unidentified human coronavirus, 72 h, MRCS cells, HCoV 229E, 3 days, CellTiter Glo; read-out: 229E CPE EC50
Would you mind classing the entries by EC50? Ranges: bottom bin = under 0.8 µM, middle bin = from 0.8 µM up to 7 µM, top bin = 7 µM and over

Data request: Bin this entry: `CC(C)(C)[C@H](NC(=O)[C@H]1CCO1)C(=O)N1C[C@H]2[C@@H]([C@H]1C(=O)N[C@H](C#N)C[C@@H]1CCNC1=O)C2(C)C`
Data returned: top bin

Data request: Bin this entry: `CC(C)(C)[C@H](NS(=O)(=O)c1cccc2ccccc12)C(=O)N1C[C@H]2[C@@H]([C@H]1C(=O)N[C@H](C#N)C[C@@H]1CCNC1=O)C2(C)C`
Data returned: bottom bin

Data request: Bin this entry: `CC(C)[C@H]1CC[C@H](C)C[C@@H]1OCC(=O)N[C@H](C(=O)N1C[C@H]2[C@@H]([C@H]1C(=O)N[C@H](C#N)C[C@@H]1CCNC1=O)C2(C)C)C(C)(C)C`
Data returned: top bin

Data request: Bin this entry: `CC(C)(C)[C@H](NS(=O)(=O)c1cccc(F)c1)C(=O)N1C[C@H]2[C@@H]([C@H]1C(=O)N[C@H](C#N)C[C@@H]1CCNC1=O)C2(C)C`
Data returned: bottom bin

Data request: Bin this entry: `CC(C)(C)[C@H](NS(=O)(=O)C[C@]12CC[C@H](CC1=O)C2(C)C)C(=O)N1C[C@H]2[C@@H]([C@H]1C(=O)N[C@H](C#N)C[C@@H]1CCNC1=O)C2(C)C`
Data returned: middle bin

Data request: Bin this entry: `CC(C)(C)[C@H](NS(=O)(=O)N1CCOCC1)C(=O)N1C[C@H]2[C@@H]([C@H]1C(=O)N[C@H](C#N)C[C@@H]1CCNC1=O)C2(C)C`
Data returned: middle bin

Data request: Bin this entry: `CC(C)(C)[C@H](NC(=O)CC#N)C(=O)N1C[C@H]2[C@@H]([C@H]1C(=O)N[C@H](C#N)C[C@@H]1CCNC1=O)C2(C)C`
Data returned: top bin

Data request: Bin this entry: `CC(C)(C)[C@H](NS(=O)(=O)CC#N)C(=O)N1C[C@H]2[C@@H]([C@H]1C(=O)N[C@H](C#N)C[C@@H]1CCNC1=O)C2(C)C`
Data returned: bottom bin

Data request: Bin this entry: `CC1(C)[C@@H]2[C@@H](C(=O)N[C@H](C#N)C[C@@H]3CCNC3=O)N(C(=O)[C@@H](NC(=O)C(F)(F)F)C34CC(C(F)(F)F)(C3)C4)C[C@@H]21`
Data returned: top bin

Data request: Bin this entry: `CC(C)(C)[C@H](NS(=O)(=O)C[C@@]12CC[C@@H](CC1=O)C2(C)C)C(=O)N1C[C@H]2[C@@H]([C@H]1C(=O)N[C@H](C#N)C[C@@H]1CCNC1=O)C2(C)C`
Data returned: top bin

Data request: Bin this entry: `CC(C)(C)[C@H](NS(=O)(=O)c1ccc(F)s1)C(=O)N1C[C@H]2[C@@H]([C@H]1C(=O)N[C@H](C#N)C[C@@H]1CCNC1=O)C2(C)C`
Data returned: bottom bin

Data request: Bin this entry: `CC(C)(C)[C@H](NC(=O)c1cc2ccccc2[nH]1)C(=O)N1C[C@H]2[C@@H]([C@H]1C(=O)N[C@H](C#N)C[C@@H]1CCNC1=O)C2(C)C`
Data returned: middle bin

Data request: Bin this entry: `CC(C)(C)[C@H](NC(=O)/C(F)=C(\F)C(F)(C(F)(F)F)C(F)(F)F)C(=O)N1C[C@H]2[C@@H]([C@H]1C(=O)N[C@H](C#N)C[C@@H]1CCNC1=O)C2(C)C`
Data returned: middle bin

Data request: Bin this entry: `CC(C)(C)[C@H](NC(=O)C(c1ccccc1)c1ccccc1)C(=O)N1C[C@H]2[C@@H]([C@H]1C(=O)N[C@H](C#N)C[C@@H]1CCNC1=O)C2(C)C`
Data returned: middle bin

Data request: Bin this entry: `CC(C)(C)[C@H](NS(=O)(=O)c1cc2c(s1)CCCC2)C(=O)N1C[C@H]2[C@@H]([C@H]1C(=O)N[C@H](C#N)C[C@@H]1CCNC1=O)C2(C)C`
Data returned: bottom bin

Data request: Bin this entry: `CC(C)(C)[C@H](NC(=S)Nc1ccccc1)C(=O)N1C[C@H]2[C@@H]([C@H]1C(=O)N[C@H](C#N)C[C@@H]1CCNC1=O)C2(C)C`
Data returned: top bin

Data request: Bin this entry: `CNC(=O)N[C@H](C(=O)N1C[C@H](N(C)C)C[C@H]1C(=O)N[C@H](C#N)C[C@@H]1CCNC1=O)C(C)(C)C`
Data returned: top bin

Data request: Bin this entry: `COC(=O)N[C@H](C(=O)N1C[C@H](N(C)C)C[C@H]1C(=O)N[C@H](C#N)C[C@@H]1CCNC1=O)C(C)(C)C`
Data returned: top bin

Data request: Bin this entry: `CC(C)(C)[C@H](NC(=O)C#Cc1ccc(C(F)(F)F)cc1)C(=O)N1C[C@H]2[C@@H]([C@H]1C(=O)N[C@H](C#N)C[C@@H]1CCNC1=O)C2(C)C`
Data returned: bottom bin
